Every entry's value here was drawn from PubChem BioAssay (NCI).

// growth lookup, one value per entry
# System: DU-145 prostate
# experimental.protocol: NCI-60 one-dose screen, 48 h (100 = growth as untreated, 0 = no growth, -100 = all killed)
# recorded.conditions: 10 µM unless noted
# Experimental: Cells are grown in 96 well plates and exposed to the test compound for 48 hours. Compounds are tested at a single concentration, which is 10^-5 M for most compounds. The reported endpoint is percent growth (GI% or GIPRCNT), where numbers from 0 - 100% represent growth inhibition, and numbers from -100% - 0 represent cell death. For example, a value of 40 represents 60% growth inhibition. A value of 0 means no net growth occurred over the course of the experiment. […]
About 83,000 compounds went through this panel and 20% of them were active in at least one assay; those are over-represented in the sample as a whole.
// return numeric value only (unit: %, not printed)

In the examples that follow, each entry is paired with its recorded growth.
1) O=C(CC1(O)C(=O)Nc2ccc(Cl)cc21)c1ccc(C(=O)NCC2CCC3(CC2)OOC2(CCCCC2)OO3)cc1 (centres undefined): -60.1
2) CC(=O)/C=C/c1ccc2c(c1)OCO2: 104
3) O=c1[nH]cc(N(CCCl)CCCl)c(=O)[nH]1: 52.4
4) O=[N+]([O-])c1ccc(OP(=O)(CCl)N(CCCl)CCCl)cc1 (centres undefined): 110
5) N#CC1C(C#N)C2CCC1C1C2N1c1ccccc1 (centres undefined): 118

Need growth, item `C/C(=C\c1ccn(-c2ccc(N)cc2)n1)[C@@H]1C[C@@H]2O[C@]2(C)CCC[C@H](C)[C@H](O)[C@@H](C)C(=O)C(C)(C)[C@@H](O)CC(=O)O1`
-8.99

Give the measured growth of `CC(=O)O[C@H](C[C@H](C(C)C)N(C)C(=O)[C@@H](NC(=O)[C@H]1CCCCN1C)C(C)C)c1nc(C(=O)N[C@@H](Cc2ccccc2)C[C@H](C)C(=O)O)c(C)s1` .
21.8

Entry `ClCCN(CCCl)c1ccc(/C=N/Nc2ncnc3nc[nH]c23)cc1` : reported growth = ?
62.8

Look at this molecule and give its reported growth. NC(=O)CNc1ccc([As]=[As]c2ccc(NCC(N)=O)cc2)cc1 (centres undefined)
60.3

###

# Tested on: HS 578T breast
# experimental.protocol: NCI-60 one-dose screen, 48 h (100 = growth as untreated, 0 = no growth, -100 = all killed)
# recorded.conditions: 10 µM unless noted
The panel holds about 83,000 compounds, 20% with a hit somewhere; the sample as a whole holds those more often.
Rule: growth of 10% or more gives label 1; anything lower gives label 0.

1) NC(=O)CNc1ccc([As]=[As]c2ccc(NCC(N)=O)cc2)cc1 (stereo not drawn): label 1
2) O=C(N/N=C/c1ccc(N(CCCl)CCCl)cc1)c1cccc2ccccc12: label 1
3) CC12CC=CCC1CCC1C2CCC2(C)C(c3ccc(=O)oc3)CCC12O (stereo not drawn): label 0
4) C=C1[C@@H](C)[C@H]2[C@H](Cc3ccccc3)NC(=O)[C@]23[C@@H](O)/C=C/[C@@](C)(O)C(=O)[C@@H](C)C/C=C/[C@H]3[C@@H]1O: label 0

Given the entry `O=C(Nc1ccc(Br)cc1)c1cc(Br)cc(Br)c1O` , answer whether its growth meets or surpasses 10%.
label 1

Reported growth reaches at least 10% for CN1CCC(O)(c2ccc(F)cc2)C(C(=O)c2ccc(F)cc2)C1 (stereo not drawn) ?
label 1

Can `COc1ccc(/C=C\c2cc(OC)c(OC)c(OC)c2)cc1NC(=O)/C=C/c1cc(OC)c(OC)c(OC)c1` be said to have growth at or above 10%?
label 1

Determine whether measured growth meets or exceeds 10% for COc1ccc([As]=[As]c2ccc(OC)c(NCS(=O)(=O)O)c2)cc1NCS(=O)(=O)O (stereo not drawn)
label 0
